# measurementNotes: chemical genetic growth profiling, strain panel (AID 1159580);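 note: tested at 20 µM; growth read once vehicle control cultures reached saturation at 30 °C; 1 = growth at the plate median or of vehicle wells; lower values mean less growth of the strain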
# conditionSummary: S. cerevisiae deletion strains, growth OD, locus YDL134C, strain PPH21, stronger effect = lower value
The whole screen tested about 5,500 compounds, of which about 2,000 (36%) were called active. Inconclusive results (about 18%) are left out. Some of the results follow. Where a SMILES comes first, the peptide text is derived from it. Bridges are numbered along the chain shown (N, C = ends). [ ]: non-standard residue; d: D form. The star is where a group is joined. ξ: configuration not given here. ξDab(CH2SO3H) = NC(CCNCS(=O)(=O)O)C(=O)O; Heptanoyl(6-Me) = CC(C)CCCCC(=O)*; Dab = NCC[CH](N)C(=O)O
quantity: normalized growth

1) CC(=O)Nc1c(C)c(C)c(C)c(C)c1NC(C)=O    1
2) C#C[C@]1(OC(C)=O)CCC2C3CCC4=CC(=O)CC[C@@H]4C3CC[C@@]21C (stereo partly drawn)    0.948
3) CC(=O)NC(C(=O)O)C(C)(C)SN=O (stereo not drawn)    1.01
4) CC(=O)NCc1c(I)c(NC(C)=O)c(I)c(C(=O)O)c1I    0.999
5) CCC(C)C1NC(=O)C(CCNCS(=O)(=O)O)NC(=O)C(NC(=O)C(CCNCS(=O)(=O)O)NC(=O)C(NC(=O)C(CCNCS(=O)(=O)O)NC(=O)CCCCC(C)C)C(C)O)CCNC(=O)C(C(C)O)NC(=O)C(CCNCS(=O)(=O)O)NC(=O)C(CCNCS(=O)(=O)O)NC(=O)C(C(C)CC)NC1=O (stereo not drawn) ({Heptanoyl(6-Me)}-[ξDab(CH2SO3H)]T[ξDab(CH2SO3H)][Dab][ξDab(CH2SO3H)]II[ξDab(CH2SO3H)][ξDab(CH2SO3H)]T; lactam 4-C; configuration not given here)    0.993
6) Nc1c2ccccc2nc2ccccc12    0.729
7) CC1C(=O)OC2C1CCC1(C)C=CC(=O)C3(C)OC213 (stereo not drawn)    0.999
8) CC(C)(C)c1nccc(-c2nn(-c3ccc(F)cc3)ccc2=O)n1    0.994
9) C[C@@H]1CC[C@H]2[C@@H](C)C(=O)O[C@@H]3O[C@@]4(C)CC[C@@H]1[C@]32OO4    0.818
10) Fc1ccc(C(c2ccccc2)(c2ccccc2F)n2ccnc2)cc1 (stereo not drawn)    0.0588
11) C[C@@H]1CC[C@H]2[C@@H](C)C(O)O[C@@H]3O[C@@]4(C)CC[C@@H]1[C@]32OO4 (stereo partly drawn)    0.314
12) CCOC(=O)OC(C)OC(=O)C1N2C(=O)C(NC(=O)[C@H](N)c3ccccc3)C2SC1(C)C (stereo partly drawn)    0.998
13) COc1ccc2[nH]cc(CCN)c2c1    0.973
14) CC(C)=CCCC1(C)C=Cc2c(O)c3c(c(CC=C(C)C)c2O1)OC12C(=CC4CC1C(C)(C)OC2(C/C=C(/C)C(=O)O)C4O)C3=O (stereo not drawn)    0.949
15) N#CC(NCc1ccccc1)c1ccc(Cl)c(Cl)c1 (stereo not drawn)    0.848
16) CO[C@@]12[C@@H]3NC3CN1C1=C(C(=O)C(N)=C(C)C1=O)[C@@H]2COC(N)=O (stereo partly drawn)    1.01
17) CCCCCc1ccc(C(=O)O/N=C\c2c(Cl)cccc2Cl)cc1    0.936
18) CC(OCc1ccccc1)C(NC(=O)OC(C)(C)C)C(N)=O (stereo not drawn)    0.994
